- assay overview: TD Phase (Groups 1 and 3): plasma and ocular tissue concentrations and pharmacokinetics of Compound 18 and its metabolite Compound 4 after once daily ocular instillation of Compound 18 nanosuspension for 7 days
- Type: in vivo, New Zealand white rabbits
- test conditions: male, New Zealand white, rabbit, topical or ocular, 0.8 mg/kg/day; aqueous humor, Day 7, from mean concentrations
readout type: Cmax (ng/mL)
Numeric answer only, unit ng/mL assumed.

• CCCc1nn(C)c2c(=O)[nH]c(-c3cc(S(=O)(=O)N4CC(CCCO)C4)ccc3OCC)nc12 = 124

query: Quick one: Cmax of `CCCc1nn(C)c2c(=O)[nH]c(-c3cc(S(=O)(=O)N4CC(CCCO[N+](=O)[O-])C4)ccc3OCC)nc12` ?
result: 0.063

Just for reference, patent US20220153746A1 is where these values come from.
